The following molecules are listed with their measured IC50 values.
Molecular target: Sialidase-3 (Homo sapiens, UniProt Q9UQ49)
Sequence (Q9UQ49 whole entry): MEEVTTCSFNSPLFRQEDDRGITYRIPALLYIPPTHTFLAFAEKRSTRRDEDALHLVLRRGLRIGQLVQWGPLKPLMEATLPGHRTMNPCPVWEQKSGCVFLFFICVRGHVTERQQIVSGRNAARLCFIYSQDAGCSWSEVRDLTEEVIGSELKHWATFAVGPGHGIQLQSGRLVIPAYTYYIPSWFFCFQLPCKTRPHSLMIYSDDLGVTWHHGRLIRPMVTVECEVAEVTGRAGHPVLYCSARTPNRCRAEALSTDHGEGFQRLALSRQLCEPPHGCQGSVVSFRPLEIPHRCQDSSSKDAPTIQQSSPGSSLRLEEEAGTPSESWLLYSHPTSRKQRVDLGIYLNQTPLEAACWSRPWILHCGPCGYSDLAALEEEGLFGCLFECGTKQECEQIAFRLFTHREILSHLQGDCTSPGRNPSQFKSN
property.name: IC50 (µM)

{"structure.as.smiles": "CC(=O)N[C@@H]1[C@@H](N=[N+]=[N-])C=C(C(=O)O)O[C@H]1CN(Cc1ccccc1)OCc1ccccc1", "measured.on": "Sialidase-3 (Homo sapiens, UniProt Q9UQ49)", "property.name": "IC50", "value.reported": 24}
{"structure.as.smiles": "CC(=O)N[C@H]1[C@H]([C@H](O)[C@H](O)CO)OC(C(=O)O)=C[C@@H]1N", "measured.on": "Sialidase-3 (Homo sapiens, UniProt Q9UQ49)", "property.name": "IC50", "value.reported": 180}
{"structure.as.smiles": "CC(=O)N[C@H]1[C@H](CNNCc2ccc(-c3ccccc3)cc2)OC(C(=O)O)=C[C@@H]1O", "measured.on": "Sialidase-3 (Homo sapiens, UniProt Q9UQ49)", "property.name": "IC50", "value.reported": 70}
{"structure.as.smiles": "CC(=O)N[C@@H]1[C@@H](N=[N+]=[N-])C=C(C(=O)O)O[C@H]1CNOCc1ccccc1", "measured.on": "Sialidase-3 (Homo sapiens, UniProt Q9UQ49)", "property.name": "IC50", "value.reported": 24}
{"structure.as.smiles": "CC(=O)N[C@@H]1[C@@H](N=[N+]=[N-])C=C(C(=O)O)O[C@H]1CNc1ccccc1", "measured.on": "Sialidase-3 (Homo sapiens, UniProt Q9UQ49)", "property.name": "IC50", "value.reported": 440}
{"structure.as.smiles": "CC(=O)N[C@H]1[C@H]([C@H](O)[C@H](O)CO)OC(C(=O)O)=C[C@@H]1O", "measured.on": "Sialidase-3 (Homo sapiens, UniProt Q9UQ49)", "property.name": "IC50", "value.reported": 6.3}
{"structure.as.smiles": "CC(=O)N[C@@H]1[C@@H](N=[N+]=[N-])C=C(C(=O)O)O[C@H]1CNNc1ccccc1", "measured.on": "Sialidase-3 (Homo sapiens, UniProt Q9UQ49)", "property.name": "IC50", "value.reported": 20}
